Reference source for all entries: PubChem BioAssay AID686978

assay: qHTS for Inhibitors of human tyrosyl-DNA phosphodiesterase 1 (TDP1): qHTS in cells in absence of CPT; details: DT40 Tdp1-/- hTDP1 cells, no CPT, ATP luminescence, 48 h; also: nearly all actives have a fitted effect of over 55% in size
Screen size: about 420,000 compounds; about 64,000 (15%) were called active. About 27% were inconclusive and are not listed. Calls follow the shape of the dose curve; as a rule, active = well fitted inhibition curve with a large enough effect; inconclusive = small, poorly fitted or top-dose-only effect; inactive = flat fitted curve, though single readings scatter. Not all results are given here.
Permitted responses: Y for active, N for inactive

Take a look at these entries with their results.
1. Cc1nn(C)c(C)c1C(C)NC(=O)c1ccc(OC2CCN(Cc3ccccn3)CC2)cc1 (stereo not drawn)	N
2. CC1(C)NC(=O)N(CC(=O)Nc2ccc(-c3ccccc3)cc2)C1=O	N
3. CCc1nnc(NC(=O)CCC(=O)O)s1	N
4. O=C(CN1C(=O)NC(Cc2c[nH]c3ccccc23)C1=O)Nc1ccccc1C(F)(F)F (stereo not drawn)	N
5. OC(CBr)C[n+]1cccc2cc(Br)ccc21 (stereo not drawn)	Y

Note: attention shifts to another entry.
[ask] Look up the recorded call for Cc1c(CN2CCCC(C(=O)c3cccc(Cl)c3)C2)c(=O)n(-c2ccccc2)n1C (stereo not drawn) in this test.
[reply] N
